Where do the numbers come from? From ChEMBL document CHEMBL4507301.

Target chain: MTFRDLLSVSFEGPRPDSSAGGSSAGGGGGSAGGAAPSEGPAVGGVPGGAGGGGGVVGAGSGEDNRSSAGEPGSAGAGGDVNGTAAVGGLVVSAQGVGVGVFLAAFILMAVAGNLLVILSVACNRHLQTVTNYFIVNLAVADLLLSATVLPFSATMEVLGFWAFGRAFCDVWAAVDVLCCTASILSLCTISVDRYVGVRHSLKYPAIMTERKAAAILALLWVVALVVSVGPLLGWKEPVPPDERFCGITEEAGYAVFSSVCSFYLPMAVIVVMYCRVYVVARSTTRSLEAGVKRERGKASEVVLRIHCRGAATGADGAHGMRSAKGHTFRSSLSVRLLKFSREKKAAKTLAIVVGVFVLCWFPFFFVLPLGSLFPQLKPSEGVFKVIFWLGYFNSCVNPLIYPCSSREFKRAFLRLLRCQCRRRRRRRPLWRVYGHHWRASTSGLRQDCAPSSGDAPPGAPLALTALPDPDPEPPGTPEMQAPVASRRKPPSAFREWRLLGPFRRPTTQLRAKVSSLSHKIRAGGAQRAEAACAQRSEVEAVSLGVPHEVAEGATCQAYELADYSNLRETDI

# Compound, Ki (nM)
records = [
    ("C[C@@H](c1cccc(C#N)c1)n1cc(Cl)cc(C(N)=O)c1=N [(S)-9s]", 1480),
]

---

# System Under Test: Alpha-2B adrenergic receptor (Homo sapiens)
# Sequence (P18089 whole entry): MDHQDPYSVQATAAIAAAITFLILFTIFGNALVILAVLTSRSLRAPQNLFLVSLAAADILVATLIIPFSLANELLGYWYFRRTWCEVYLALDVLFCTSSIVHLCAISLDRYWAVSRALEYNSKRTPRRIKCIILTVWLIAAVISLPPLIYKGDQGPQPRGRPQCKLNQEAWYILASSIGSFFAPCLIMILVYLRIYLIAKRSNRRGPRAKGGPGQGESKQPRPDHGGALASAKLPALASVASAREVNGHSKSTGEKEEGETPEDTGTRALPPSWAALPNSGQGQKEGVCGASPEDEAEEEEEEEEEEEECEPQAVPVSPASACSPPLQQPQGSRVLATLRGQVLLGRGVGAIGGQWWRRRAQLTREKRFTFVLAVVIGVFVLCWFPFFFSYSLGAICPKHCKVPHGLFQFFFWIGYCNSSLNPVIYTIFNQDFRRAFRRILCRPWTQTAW

# Molecule, Readout Units, IC50
records = [
    ("C[C@H](c1cccc(C#N)c1)n1cc(Cl)cc(C(N)=O)c1=N [(R)-9s]", "nM", 1400),
]
